From: patent US9200260B2

- tested system: wild-type AGT (T4 phage α-glucosyltransferase) (Enterobacteria phage T4, UniProt P04519)
- Construct: purchased New England Biolabs, Inc. (Ipswich, Mass.)
- Sequence (P04519 whole entry): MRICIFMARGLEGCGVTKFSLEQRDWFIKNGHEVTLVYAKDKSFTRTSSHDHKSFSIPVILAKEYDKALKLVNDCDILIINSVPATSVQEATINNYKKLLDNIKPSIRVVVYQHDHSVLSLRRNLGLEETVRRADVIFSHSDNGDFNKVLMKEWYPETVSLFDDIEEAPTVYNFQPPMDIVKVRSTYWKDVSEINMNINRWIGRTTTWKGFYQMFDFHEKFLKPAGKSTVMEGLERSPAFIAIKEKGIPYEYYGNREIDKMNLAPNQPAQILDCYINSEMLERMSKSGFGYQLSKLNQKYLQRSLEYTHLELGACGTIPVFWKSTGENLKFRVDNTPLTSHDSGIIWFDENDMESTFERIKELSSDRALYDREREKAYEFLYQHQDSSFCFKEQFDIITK
- assay comment: Enzymatic transfer of UDP-sugars to BGT DNA by wild-type AGT (protection from MfeI cleavage, agarose gel)
- Format: biochemical
- applied conditions: enzyme AGT, 100 ng, 0.25 μg BGT DNA, 37° C. 1 h; >> incomplete protection at highest tested concentration; n.a. no activity
We begin with a simple list: items and their reported UDP-Sugar concentration required for complete protection of BGT DNA from MfeI cleavage.
metric: UDP-Sugar concentration required for complete protection of BGT DNA from MfeI cleavage

{"compound": "NCC1OC(OP(=O)(O)OP(=O)(O)OC[C@H]2O[C@@H](n3ccc(=O)[nH]c3=O)[C@H](O)[C@@H]2O)C(O)C(O)C1O (stereo partly shown)", "result": ">>5.0 mM"}
{"compound": "O=C(O)[C@H]1O[C@H](OP(=O)(O)OP(=O)(O)OC[C@H]2O[C@@H](n3ccc(=O)[nH]c3=O)[C@H](O)[C@@H]2O)[C@H](O)[C@@H](O)[C@@H]1O [UDP-GlcUA, UDP-Glucuronic acid, reference compound]", "result": ">>20.0 mM"}
{"compound": "N[C@H]1[C@@H](OP(=O)(O)OP(=O)(O)OC[C@H]2O[C@@H](n3ccc(=O)[nH]c3=O)[C@H](O)[C@@H]2O)O[C@H](CO)[C@@H](O)[C@@H]1O", "result": ">>1.25 mM"}
{"compound": "CC(=O)N[C@H]1[C@@H](OP(=O)(O)OP(=O)(O)OC[C@H]2O[C@@H](n3ccc(=O)[nH]c3=O)[C@H](O)[C@@H]2O)O[C@H](CO)[C@@H](O)[C@@H]1O [UDP-GlcNAc, UDP-N-acetyl-D-glucosamine, reference compound]", "result": ">>20.0 mM"}

====

- tested system: BGT/Y261L (Enterobacteria phage T4, UniProt P04547, Y261L)
- Sequence (P04547 whole entry Y261L): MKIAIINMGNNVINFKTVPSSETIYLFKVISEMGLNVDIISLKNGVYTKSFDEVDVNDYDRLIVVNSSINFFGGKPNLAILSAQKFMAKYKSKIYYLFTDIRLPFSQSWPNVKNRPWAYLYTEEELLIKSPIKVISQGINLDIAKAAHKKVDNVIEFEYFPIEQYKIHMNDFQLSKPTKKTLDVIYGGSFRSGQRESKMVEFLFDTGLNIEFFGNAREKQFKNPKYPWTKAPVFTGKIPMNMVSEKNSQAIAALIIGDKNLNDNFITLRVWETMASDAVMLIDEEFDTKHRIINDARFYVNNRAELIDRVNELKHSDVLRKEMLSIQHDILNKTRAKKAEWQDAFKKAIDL
- Type: biochemical
- Design: purchased New England Biolabs, Inc. (Ipswich, Mass.)
- applied conditions: enzyme BGT/Y261L, 100 ng, 0.25 μg BGT DNA, 37° C. 1 h; >> incomplete protection at highest tested concentration; n.a. no activity
metric: UDP-Sugar concentration required for complete protection of BGT DNA from MfeI cleavage

{"molecule": "N[C@H]1[C@@H](OP(=O)(O)OP(=O)(O)OC[C@H]2O[C@@H](n3ccc(=O)[nH]c3=O)[C@H](O)[C@@H]2O)O[C@H](CO)[C@@H](O)[C@@H]1O", "result": "0.03 mM"}
{"molecule": "[N-]=[N+]=NCC1OC(OP(=O)(O)OP(=O)(O)OC[C@H]2O[C@@H](n3ccc(=O)[nH]c3=O)[C@H](O)[C@@H]2O)C(O)C(O)C1O (some centres unmarked) [Compound 1, UDP-6-Azido-Glc, reference compound]", "result": ">>1.0 mM"}
{"molecule": "O=C(O)[C@H]1O[C@H](OP(=O)(O)OP(=O)(O)OC[C@H]2O[C@@H](n3ccc(=O)[nH]c3=O)[C@H](O)[C@@H]2O)[C@H](O)[C@@H](O)[C@@H]1O [UDP-GlcUA, UDP-Glucuronic acid, reference compound]", "result": ">>10.0 mM"}
{"molecule": "CC(=O)N[C@H]1[C@@H](OP(=O)(O)OP(=O)(O)OC[C@H]2O[C@@H](n3ccc(=O)[nH]c3=O)[C@H](O)[C@@H]2O)O[C@H](CO)[C@@H](O)[C@@H]1O [UDP-GlcNAc, UDP-N-acetyl-D-glucosamine, reference compound]", "result": "2.5 mM"}
{"molecule": "NCC1OC(OP(=O)(O)OP(=O)(O)OC[C@H]2O[C@@H](n3ccc(=O)[nH]c3=O)[C@H](O)[C@@H]2O)C(O)C(O)C1O (some centres unmarked)", "result": "0.31 mM"}

====

- tested system: wild-type BGT (T4-β-glucosyltransferase) (Enterobacteria phage T4, UniProt P04547)
- Construct: purchased New England Biolabs, Inc. (Ipswich, Mass.)
- Sequence (P04547 whole entry): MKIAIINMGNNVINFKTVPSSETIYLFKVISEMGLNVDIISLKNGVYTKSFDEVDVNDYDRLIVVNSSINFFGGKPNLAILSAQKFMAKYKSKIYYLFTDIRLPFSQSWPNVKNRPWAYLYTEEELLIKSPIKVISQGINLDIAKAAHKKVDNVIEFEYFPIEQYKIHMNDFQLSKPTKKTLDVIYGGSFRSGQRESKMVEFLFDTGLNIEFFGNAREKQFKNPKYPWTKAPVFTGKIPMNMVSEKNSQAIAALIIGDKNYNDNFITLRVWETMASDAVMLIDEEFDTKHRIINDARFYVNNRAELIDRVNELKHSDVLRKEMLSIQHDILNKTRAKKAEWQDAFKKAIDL
- assay comment: Enzymatic transfer of UDP-sugars to BGT DNA by wild-type BGT (protection from MfeI cleavage, agarose gel)
- Assay type: biochemical
- applied conditions: enzyme BGT, 100 ng, 0.25 μg BGT DNA, 37° C. 1 h; >> incomplete protection at highest tested concentration; n.a. no activity
metric: UDP-Sugar concentration required for complete protection of BGT DNA from MfeI cleavage (mM)

{"compound": "N[C@H]1[C@@H](OP(=O)(O)OP(=O)(O)OC[C@H]2O[C@@H](n3ccc(=O)[nH]c3=O)[C@H](O)[C@@H]2O)O[C@H](CO)[C@@H](O)[C@@H]1O", "tested system": "wild-type BGT (T4-β-glucosyltransferase) (Enterobacteria phage T4, UniProt P04547)", "readout unit": "mM", "recorded number": 0.03}
{"compound": "[N-]=[N+]=NCC1OC(OP(=O)(O)OP(=O)(O)OC[C@H]2O[C@@H](n3ccc(=O)[nH]c3=O)[C@H](O)[C@@H]2O)C(O)C(O)C1O (some centres unmarked) [Compound 1, UDP-6-Azido-Glc, reference compound]", "tested system": "wild-type BGT (T4-β-glucosyltransferase) (Enterobacteria phage T4, UniProt P04547)", "readout unit": "mM", "recorded number": 0.04}
{"compound": "O=C(O)[C@H]1O[C@H](OP(=O)(O)OP(=O)(O)OC[C@H]2O[C@@H](n3ccc(=O)[nH]c3=O)[C@H](O)[C@@H]2O)[C@H](O)[C@@H](O)[C@@H]1O [UDP-GlcUA, UDP-Glucuronic acid, reference compound]", "tested system": "wild-type BGT (T4-β-glucosyltransferase) (Enterobacteria phage T4, UniProt P04547)", "readout unit": "mM", "recorded number": 1.0}
{"compound": "NCC1OC(OP(=O)(O)OP(=O)(O)OC[C@H]2O[C@@H](n3ccc(=O)[nH]c3=O)[C@H](O)[C@@H]2O)C(O)C(O)C1O (some centres unmarked)", "tested system": "wild-type BGT (T4-β-glucosyltransferase) (Enterobacteria phage T4, UniProt P04547)", "readout unit": "mM", "recorded number": 0.02}
{"compound": "CC(=O)N[C@H]1[C@@H](OP(=O)(O)OP(=O)(O)OC[C@H]2O[C@@H](n3ccc(=O)[nH]c3=O)[C@H](O)[C@@H]2O)O[C@H](CO)[C@@H](O)[C@@H]1O [UDP-GlcNAc, UDP-N-acetyl-D-glucosamine, reference compound]", "tested system": "wild-type BGT (T4-β-glucosyltransferase) (Enterobacteria phage T4, UniProt P04547)", "readout unit": "mM", "recorded number": 25}
